1 (yes) if fraction unbound, human plasma is below 0.4. 0 (no) if not; exact matches included in 0 (no).

Strictly below 0.4 in fraction unbound, human plasma? Cc1cc(N2CCCC2)nc(C2CCCN(C)C2)n1 (stereo not drawn) 0 (no)

Strictly below 0.4 in fraction unbound, human plasma? NC1CCC(C(=O)N2CCC(c3c[nH]c4ncccc34)CC2)C1 (stereo not drawn) 0 (no)

Strictly below 0.4 in fraction unbound, human plasma? `Cn1cc(-c2cn3nccc3c(-c3cnn([C@]4(CC#N)C[C@@H](C#N)C4)c3)n2)cn1` 1 (yes)

Strictly below 0.4 in fraction unbound, human plasma? `Fc1ccc(-c2ccc3c(c2)[nH]c2ccncc23)cn1` 1 (yes)

Strictly below 0.4 in fraction unbound, human plasma? CN(C(=O)c1cc(N2CCNC2=O)ccc1F)C1CCNC1 (stereo not drawn) 0 (no)

Strictly below 0.4 in fraction unbound, human plasma? `Cc1c(Cl)ccc2cc3n(c12)[C@@H](C)CNC3=O` 1 (yes)

Strictly below 0.4 in fraction unbound, human plasma? `COc1ccc([C@H]2CN(C(C)=O)[C@@H]3CCCN(Cc4cccc(F)c4)[C@H]23)cc1` 1 (yes)

Strictly below 0.4 in fraction unbound, human plasma? CC(C)(C)OC(=O)N1CCCC1C(=O)N1CCC(C(=O)N[C@@H](Cc2c[nH]c3ccccc23)C(=O)O)CC1 (stereo partly drawn) 0 (no)

Strictly below 0.4 in fraction unbound, human plasma? `Cc1nc(Nc2nccs2)cc(C2CN(c3ncccn3)C2)n1` 1 (yes)

Strictly below 0.4 in fraction unbound, human plasma? `Cc1nnc(-c2ccc(N3CCC(Oc4cc(F)ccc4Cl)CC3)nn2)o1` 1 (yes)

Strictly below 0.4 in fraction unbound, human plasma? `CCOc1cc2nn(CCC(C)(C)O)cc2cc1NC(=O)c1cccc(C(F)F)n1` 1 (yes)

Strictly below 0.4 in fraction unbound, human plasma? NC1CCCC(C(=O)Nc2cccc(N3CCNC3=O)c2)C1 (stereo not drawn) 0 (no)

Strictly below 0.4 in fraction unbound, human plasma? `CCC(=O)N1CCN(c2ccc(Cl)cc2NC(=O)COc2ccccc2)CC1` 1 (yes)

Strictly below 0.4 in fraction unbound, human plasma? `CC(C)[C@@](C)(O)[C@@H]1CN(c2nc(-c3n[nH]c4ncccc34)c(F)cc2Cl)CCN1` 1 (yes)

Strictly below 0.4 in fraction unbound, human plasma? `CNc1nc(C)cc(C(=O)Nc2ccc3[nH]ncc3c2)n1` 1 (yes)

Strictly below 0.4 in fraction unbound, human plasma? `COc1nc2sc(C(=O)NC3CC3)c(N)c2c(C)c1Cl` 1 (yes)

Strictly below 0.4 in fraction unbound, human plasma? `Nc1n[nH]cc1-c1cc(Cl)ccc1Oc1cc(F)c(S(=O)(=O)Nc2cscn2)cc1Cl` 1 (yes)

Strictly below 0.4 in fraction unbound, human plasma? `CC(C)(O)CCn1cc2cc(NC(=O)c3cccc(C(F)(F)F)n3)c(C(C)(C)O)cc2n1` 1 (yes)

Strictly below 0.4 in fraction unbound, human plasma? `COc1nn(C)cc1C(=O)Nc1cccc(-c2cnc3n2CCC3)c1` 1 (yes)

Strictly below 0.4 in fraction unbound, human plasma? `c1ccc(-c2ccc(CN3CCCCCCC3)cc2)cc1` 1 (yes)

Strictly below 0.4 in fraction unbound, human plasma? O=C1NCCN(C(=O)c2ccncc2)C1c1ccccc1Cl (stereo not drawn) 0 (no)

Strictly below 0.4 in fraction unbound, human plasma? CC1(CNC(=O)c2cncc(C3CCNCC3)n2)CCCO1 (stereo not drawn) 0 (no)
